tested on: OVCAR-8; conditions: read-out: 50% lethal concentration (LC50); OVCAR-8, Ovarian
Answer each item with its documented CC50.

In the examples that follow, each entry is paired with its recorded CC50.
C=C1CCC2C3(C)COC(c4cn(-c5ccccc5)nc4-c4ccccc4)OC3CCC2(C)C1CC=C1C(=O)OCC1O (stereo not drawn)
> 100 µM
C=C1CCC2C3(C)COC(c4cn(-c5ccccc5)nc4-c4ccc(F)cc4)OC3CCC2(C)C1CC=C1C(=O)OCC1O (stereo not drawn)
5.86 µM

// CC50 lookup, molecule = C=C1CCC2C3(C)COC(c4cn(-c5ccccc5)nc4-c4cccc([N+](=O)[O-])c4)OC3CCC2(C)C1CC=C1C(=O)OCC1O (stereo not drawn) , result: > 100 µM

---

Give measured Total growth inhibition (TGI) for each item. Keep answers brief.
system: MOLT-4; settings: MOLT-4, Leukemia
Give bare numbers, in µM.

Please report Total growth inhibition (TGI) for every entry that follows.
1. C=C1CCC2C3(C)COC(c4cn(-c5ccccc5)nc4-c4cccc(Br)c4)OC3CCC2(C)C1CC=C1C(=O)OCC1O (stereo not shown) [1e]
2. C=C1CCC2C3(C)COC(c4cn(-c5ccccc5)nc4-c4cccc(Cl)c4)OC3CCC2(C)C1CC=C1C(=O)OCC1O (stereo not shown) [1d]
3. C=C1CCC2C3(C)COC(c4cn(-c5ccccc5)nc4-c4ccc(OC)cc4)OC3CCC2(C)C1CC=C1C(=O)OCC1O (stereo not shown) [1j]

[4.24, 3.82, 7.57]

---

system: M14; assay type: cell-based; details: M14, Melanoma
Endpoint Name: Total growth inhibition (TGI)
Entry format: amount then unit.

Look over these answered cases.
C=C1CCC2C3(C)COC(c4cn(-c5ccccc5)nc4-c4cccc(F)c4)OC3CCC2(C)C1CC=C1C(=O)OCC1O (stereo not drawn)
3.59 µM
C=C1CCC2C3(C)COC(c4cn(-c5ccccc5)nc4-c4cccc(Br)c4)OC3CCC2(C)C1CC=C1C(=O)OCC1O (stereo not drawn)
4.12 µM

API: the following record is the query input.
Notebook: C=C1CCC2C3(C)COC(c4cn(-c5ccccc5)nc4-c4cccc([N+](=O)[O-])c4)OC3CCC2(C)C1CC=C1C(=O)OCC1O (stereo not drawn) , Total growth inhibition (TGI) read as 4.52 µM

---

system: HCT-15; conditions: HCT-15, Colon
Endpoint Name: Total growth inhibition (TGI)
Returns: string containing the numeric result and its unit.

// below: answered molecules
C=C1CCC2C3(C)COC(c4cn(-c5ccccc5)nc4-c4cccc(Br)c4)OC3CCC2(C)C1CC=C1C(=O)OCC1O (stereo not drawn)
3.55 µM
C=C1CCC2C3(C)COC(c4cn(-c5ccccc5)nc4-c4cccc(Cl)c4)OC3CCC2(C)C1CC=C1C(=O)OCC1O (stereo not drawn)
3.47 µM
C=C1CCC2C3(C)COC(c4cn(-c5ccccc5)nc4-c4ccc(C)cc4)OC3CCC2(C)C1CC=C1C(=O)OCC1O (stereo not drawn)
3.19 µM
C=C1CCC2C3(C)COC(c4cn(-c5ccccc5)nc4-c4ccc(F)cc4)OC3CCC2(C)C1CC=C1C(=O)OCC1O (stereo not drawn)
3.18 µM
C=C1CCC2C3(C)COC(c4cn(-c5ccccc5)nc4-c4ccc(Br)cc4)OC3CCC2(C)C1CC=C1C(=O)OCC1O (stereo not drawn)
3.3 µM

From here, focus on the item given below.
Recorded Total growth inhibition (TGI) (molecule C=C1CCC2C3(C)COC(c4cn(-c5ccccc5)nc4-c4ccc(OC)cc4)OC3CCC2(C)C1CC=C1C(=O)OCC1O (stereo not drawn) ): 3.37 µM

---

test system: M14; assay type: cell-based; conditions: M14, Melanoma
Answer each item with its documented Total growth inhibition (TGI).
Numbers only, in µM.

Check out these entries, answers already filled in.
C=C1CCC2C3(C)COC(c4cn(-c5ccccc5)nc4-c4ccc(OC)cc4)OC3CCC2(C)C1CC=C1C(=O)OCC1O (stereo not shown)
3.54
C=C1CCC2C3(C)COC(c4cn(-c5ccccc5)nc4-c4ccc(C)cc4)OC3CCC2(C)C1CC=C1C(=O)OCC1O (stereo not shown)
3.61
C=C1CCC2C3(C)COC(c4cn(-c5ccccc5)nc4-c4ccc(Br)cc4)OC3CCC2(C)C1CC=C1C(=O)OCC1O (stereo not shown)
3.55
C=C1CCC2C3(C)COC(c4cn(-c5ccccc5)nc4-c4ccc(Cl)cc4)OC3CCC2(C)C1CC=C1C(=O)OCC1O (stereo not shown)
3.69
C=C1CCC2C3(C)COC(c4cn(-c5ccccc5)nc4-c4ccccc4)OC3CCC2(C)C1CC=C1C(=O)OCC1O (stereo not shown)
3.62

Hello, I would appreciate it if you could give Total growth inhibition (TGI) for each entry below.
1. C=C1CCC2C3(C)COC(c4cn(-c5ccccc5)nc4-c4ccc(F)cc4)OC3CCC2(C)C1CC=C1C(=O)OCC1O (stereo not shown)
2. C=C1CCC2C3(C)COC(c4cn(-c5ccccc5)nc4-c4cccc(Cl)c4)OC3CCC2(C)C1CC=C1C(=O)OCC1O (stereo not shown)

1. 3.23
2. 3.88

---

test system: UACC-62; details: read-out: 50% lethal concentration (LC50); UACC-62, Melanoma
Record form. Attribute: CC50. Fill in for each entry.
Give bare numbers, in µM.

Take each entry in turn and give its CC50.
1. C=C1CCC2C3(C)COC(c4cn(-c5ccccc5)nc4-c4ccc(C)cc4)OC3CCC2(C)C1CC=C1C(=O)OCC1O (stereo not shown)
2. C=C1CCC2C3(C)COC(c4cn(-c5ccccc5)nc4-c4ccc(OC)cc4)OC3CCC2(C)C1CC=C1C(=O)OCC1O (stereo not shown)
3. C=C1CCC2C3(C)COC(c4cn(-c5ccccc5)nc4-c4cccc([N+](=O)[O-])c4)OC3CCC2(C)C1CC=C1C(=O)OCC1O (stereo not shown)
4. C=C1CCC2C3(C)COC(c4cn(-c5ccccc5)nc4-c4ccccc4)OC3CCC2(C)C1CC=C1C(=O)OCC1O (stereo not shown)
5. C=C1CCC2C3(C)COC(c4cn(-c5ccccc5)nc4-c4ccc(F)cc4)OC3CCC2(C)C1CC=C1C(=O)OCC1O (stereo not shown)

[6.04, 9.48, 7.06, 6.22, 6.05]

Your task in this section: give CC50 for each listed record.
1. C=C1CCC2C3(C)COC(c4cn(-c5ccccc5)nc4-c4ccc(Br)cc4)OC3CCC2(C)C1CC=C1C(=O)OCC1O (stereo not shown)
2. C=C1CCC2C3(C)COC(c4cn(-c5ccccc5)nc4-c4cccc(F)c4)OC3CCC2(C)C1CC=C1C(=O)OCC1O (stereo not shown)

6.2
6.22

Hey, can you go through the list below and give me CC50 for every item?
1. C=C1CCC2C3(C)COC(c4cn(-c5ccccc5)nc4-c4ccc(Cl)cc4)OC3CCC2(C)C1CC=C1C(=O)OCC1O (stereo not shown)
2. C=C1CCC2C3(C)COC(c4cn(-c5ccccc5)nc4-c4cccc(Br)c4)OC3CCC2(C)C1CC=C1C(=O)OCC1O (stereo not shown)
3. C=C1CCC2C3(C)COC(c4cn(-c5ccccc5)nc4-c4cccc(Cl)c4)OC3CCC2(C)C1CC=C1C(=O)OCC1O (stereo not shown)

[6.39, 6.9, 6.83]

---

Give CC50 for every item shown.
tested on: NCI-H460; conditions: read-out: 50% lethal concentration (LC50); NCI-H460, Non-Small Cell Lung
One number for each entry, in µM.

C=C1CCC2C3(C)COC(c4cn(-c5ccccc5)nc4-c4ccc(Br)cc4)OC3CCC2(C)C1CC=C1C(=O)OCC1O (centres unmarked) [1h]
7

Provide reported CC50 for each item, in the same order as listed.
1. C=C1CCC2C3(C)COC(c4cn(-c5ccccc5)nc4-c4ccc(Cl)cc4)OC3CCC2(C)C1CC=C1C(=O)OCC1O (centres unmarked) [1g]
2. C=C1CCC2C3(C)COC(c4cn(-c5ccccc5)nc4-c4ccc(F)cc4)OC3CCC2(C)C1CC=C1C(=O)OCC1O (centres unmarked) [1f]
3. C=C1CCC2C3(C)COC(c4cn(-c5ccccc5)nc4-c4ccccc4)OC3CCC2(C)C1CC=C1C(=O)OCC1O (centres unmarked) [1a]
4. C=C1CCC2C3(C)COC(c4cn(-c5ccccc5)nc4-c4cccc(Cl)c4)OC3CCC2(C)C1CC=C1C(=O)OCC1O (centres unmarked) [1d]

1. 7.76
2. 6.57
3. 6.74
4. 6.66

---

system: MDA-MB-231; settings: read-out: 50% lethal concentration (LC50); MDA-MB-231/ATCC, Breast
Answer each item with its documented CC50.
Answers are plain numbers, in µM.

C=C1CCC2C3(C)COC(c4cn(-c5ccccc5)nc4-c4ccccc4)OC3CCC2(C)C1CC=C1C(=O)OCC1O (stereo not shown)
6.15
C=C1CCC2C3(C)COC(c4cn(-c5ccccc5)nc4-c4ccc(Br)cc4)OC3CCC2(C)C1CC=C1C(=O)OCC1O (stereo not shown)
6.19
C=C1CCC2C3(C)COC(c4cn(-c5ccccc5)nc4-c4ccc(F)cc4)OC3CCC2(C)C1CC=C1C(=O)OCC1O (stereo not shown)
6.41
C=C1CCC2C3(C)COC(c4cn(-c5ccccc5)nc4-c4cccc(F)c4)OC3CCC2(C)C1CC=C1C(=O)OCC1O (stereo not shown)
6.28
C=C1CCC2C3(C)COC(c4cn(-c5ccccc5)nc4-c4cccc(Br)c4)OC3CCC2(C)C1CC=C1C(=O)OCC1O (stereo not shown)
6.23

I have 5 molecules here; please give me CC50 for each one.
1. C=C1CCC2C3(C)COC(c4cn(-c5ccccc5)nc4-c4cccc(Cl)c4)OC3CCC2(C)C1CC=C1C(=O)OCC1O (stereo not shown)
2. C=C1CCC2C3(C)COC(c4cn(-c5ccccc5)nc4-c4ccc(Cl)cc4)OC3CCC2(C)C1CC=C1C(=O)OCC1O (stereo not shown)
3. C=C1CCC2C3(C)COC(c4cn(-c5ccccc5)nc4-c4ccc(OC)cc4)OC3CCC2(C)C1CC=C1C(=O)OCC1O (stereo not shown)
4. C=C1CCC2C3(C)COC(c4cn(-c5ccccc5)nc4-c4cccc([N+](=O)[O-])c4)OC3CCC2(C)C1CC=C1C(=O)OCC1O (stereo not shown)
5. C=C1CCC2C3(C)COC(c4cn(-c5ccccc5)nc4-c4ccc(C)cc4)OC3CCC2(C)C1CC=C1C(=O)OCC1O (stereo not shown)

5.97
6.25
60.1
6.44
6.33
